measurement target: MBNL1-His6/Biot-(CUG)12 binding
run description: HTRF binding assay of MBNL1-His6 and Biot-
measurement parameters: read-out: IC50 (μM) HTRF; hit confirmation, 12-point 1:3 titration, 0.3 nM – 57.5 μM, 1536-well, duplicates
Structures can show the parent of a compound that is named as a salt.
y if IC50 is below 50 µM. n if not; exact matches included in n.

Confirm or reject: IC50 of CN1C[C@H](CNC(=O)OCc2ccccc2)C[C@@H]2c3cccc4c3c(cn4C)C[C@H]21 lies strictly below 50 µM
n

Confirm or reject: IC50 of Cl.Cl.Oc1ccc2c3c1O[C@H]1c4[nH]c5c(c4C[C@@]4(O)[C@@H](C2)N(CC2CC2)CC[C@]314)C[C@@]1(O)[C@H]2Cc3ccc(O)c4c3[C@@]1(CCN2CC1CC1)[C@H]5O4 [nor-Binaltorphimine dihydrochloride] lies strictly below 50 µM
y

Confirm or reject: IC50 of Cn1ccc2cc(NC(=O)Nc3cccnc3)ccc21 [SB 200646 HCl] lies strictly below 50 µM
n

Confirm or reject: IC50 of CC(O)C(C)OC(=O)[C@@H]1C[C@@H]2c3cccc4c3c(cn4C(C)C)C[C@H]2N(C)C1 (stereo partly drawn) [LY-53,857 maleate] lies strictly below 50 µM
y

Confirm or reject: IC50 of CCCN1C[C@H](CSC)C[C@@H]2c3cccc4[nH]cc(c34)C[C@H]21 [Pergolide methanesulfonate] lies strictly below 50 µM
y

Confirm or reject: IC50 of O=C(Nc1cc(C(=O)Nc2ccc(S(=O)(=O)O)cc2S(=O)(=O)O)cc(C(=O)Nc2ccc(S(=O)(=O)O)cc2S(=O)(=O)O)c1)Nc1cc(C(=O)Nc2ccc(S(=O)(=O)O)cc2S(=O)(=O)O)cc(C(=O)Nc2ccc(S(=O)(=O)O)cc2S(=O)(=O)O)c1 [NF449 octasodium salt] lies strictly below 50 µM
y
